- System: UCD52 (cells of a triple-negative basal-like breast cancer xenograft);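 also: cells dissociated from PDX tumors propagated in female NSG mouse mammary fat pads, vehicle control 0.1% DMSO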
- assay_protocol: cell viability (% of vehicle); higher = less cytotoxic
- settings: 1 µM; 72 h
Note to self: cell viability under 90 means 1, ties and anything higher get 0.

Solved entries (count: 6):
CC1(C)CCC(c2ccc(Cl)cc2)=C(CN2CCN(c3ccc(C(=O)NS(=O)(=O)c4ccc(NC(CCN5CCOCC5)CSc5ccccc5)c(S(=O)(=O)C(F)(F)F)c4)cc3)CC2)C1 (stereo not given) ... 1
Cc1cc(-n2c(=O)[nH]c(=O)n(C)c2=O)ccc1Oc1ccc(SC(F)(F)F)cc1 ... 0
Cn1cnc2c(F)c(Nc3ccc(Br)cc3F)c(C(=O)NOCCO)cc21 ... 1
CC(C)Nc1cc(-c2c[nH]c(C(=O)NC(CO)c3cccc(Cl)c3)c2)c(Cl)cn1 (stereo not given) ... 1
Clc1ccc(CSC(Cn2ccnc2)c2ccc(Cl)cc2Cl)cc1.O=[N+]([O-])O (stereo not given) [Sulconazole Nitrate] ... 0
Nc1ccc2cc3ccc([NH3+])cc3nc2c1.Nc1ccc2cc3ccc([NH3+])cc3nc2c1.O=S(=O)([O-])[O-] [Proflavine Hemisulfate] ... 0

// query In plain terms, does "COc1ncc(-c2ccc3nccc(-c4ccnnc4)c3c2)cc1NS(=O)(=O)c1ccc(F)cc1F" come in under 90 for cell viability?
// result 1

// query In plain terms, does CNC(=O)c1cc(Oc2ccc(NC(=O)Nc3ccc(Cl)c(C(F)(F)F)c3)cc2)ccn1.Cc1ccc(S(=O)(=O)O)cc1 [Sorafenib Tosylate] come in under 90 for cell viability?
// result 1

// query In plain terms, does "COc1cc2c(Oc3ccc4[nH]c(C)cc4c3F)ncnc2cc1OCCCN1CCCC1" come in under 90 for cell viability?
// result 1
